Below, each of the molecules is paired with its reported EC50 value.
- Tested on: Hep-G2 hepatic cancer cells
- Procedure summary: Cell viability, ALAMAR blue assay, monotherapy
- Type: cell-based
- Test context: Homo sapiens, HepG2, 72 h, read-out: EC50 dose of monotherapy
- Source text: In brief, HCT-116, MiaPaCa-2 and Panc-1 cells were thawed in high glucose DMEM (Sigma D5796) with 10% heat-inactivated Foetal Calf Serum (FCS) (PAA, A15-101)). […] A number of appropriate control samples were included. First, absorbance values measured in reagent ‘blank’ wells (containing cell culture medium and colorimetric agent only) were subtracted from ‘test’ sample-containing wells. ‘Blank’ absorbance values were routinely between 5 and 10% of the values recorded in test wells. […]
Readout name: EC50 (nM)

>>> df
                           smiles_structure  observed_value
0  CC(C)C[C@H](NC(=O)[C@H](Cc1ccccc1)NC(=O)c1cnccn1)B(O)O              16
1  O=C(NO)c1ccc(CNC(=O)c2[nH]c(-c3ccc(O)cc3)cc2-c2ccoc2)cc1             910
2  CNC(=O)c1cc(Oc2ccc(NC(=O)Nc3ccc(Cl)c(C(F)(F)F)c3)cc2)ccn1             620
